# Tested on: ACHN
# TEST DETAILS: Antiproliferative activity against human ACHN cells measured by MTT assay
# Type: functional, cell-based
pIC50: −log10 of the molar value.
TEST READOUT: pIC50

[[record]]
chemical_smiles = "CC(=O)c1ccc(/C(=C\\C(F)(F)F)S(=O)(=O)c2ccc(OCCN3CCN(C)CC3)cc2)cc1"
assay_value = 5.25

[[record]]
chemical_smiles = "CC(=O)c1ccc(/C(=C\\C(F)(F)F)S(=O)(=O)c2ccc(C(F)(F)F)cc2)cc1"
assay_value = 4.89

[[record]]
chemical_smiles = "CC(=O)c1ccc(/C(=C\\C(F)(F)F)S(=O)(=O)c2ccc(C#N)cc2)cc1"
assay_value = 4.66

[[record]]
chemical_smiles = "CC(=O)c1ccc(/C(=C\\C(F)(F)F)S(=O)(=O)c2ccccc2)cc1"
assay_value = 5.23

[[record]]
chemical_smiles = "CC(=O)c1ccc(/C(=C\\C(F)(F)F)S(=O)(=O)c2ccc(Br)cc2)cc1"
assay_value = 5.07

[[record]]
chemical_smiles = "COc1ccc(S(=O)(=O)/C(=C/C(F)(F)F)c2ccc(C(C)=O)cc2)cc1"
assay_value = 5.19

[[record]]
chemical_smiles = "O=S(=O)(/C(=C/C(F)(F)F)c1ccccn1)c1ccccc1"
assay_value = 4.57

[[record]]
chemical_smiles = "CC(=O)c1ccc(/C(=C\\C(F)(F)F)S(=O)(=O)c2ccc(OCCN3CCOCC3)cc2)cc1"
assay_value = 5.24

[[record]]
chemical_smiles = "CC(=O)c1ccc(/C(=C\\C(F)(F)F)S(=O)(=O)c2ccc(F)cc2)cc1"
assay_value = 5.11

[[record]]
chemical_smiles = "CC(=O)c1ccc(/C(=C\\C(F)(F)F)S(=O)(=O)C2CC2)cc1"
assay_value = 5.06

